meta.source: ChEMBL document CHEMBL3988442

Measured Percent Effect accompanies every entry in the list below.
tested on: Mycobacterium tuberculosis; experiment: Cornell - Phenotypic assay to identify agents that inhibit growth of Mycobacterium tuberculosis; format: functional; parameters: scale not given: direction of the effect not stated beside the values; settings: 10 mM as filed; unlikely as a test dose
The campaign covered roughly 53,000 compounds. About 900 (1.7%) showed an effect of 50% or more. The full list was thinned out, with strong results kept by preference.
The response must be a number in % with no trailing unit.

Q: Which Percent Effect is listed for CCN(C(=O)Cc1ccc(NCc2ncc[nH]2)cc1)c1ccccc1 ?
A: 52.94

Q: Which Percent Effect is listed for OC1=C2C(=Nc3n[nH]c(O)c3C2c2ccco2)CCC1 (stereo unspecified) ?
A: 27.79

Q: Which Percent Effect is listed for O=S(=O)(Nc1cnc(N2CCCC2)nc1)c1ccc(OC(F)(F)F)cc1 ?
A: 94.98

Others:
Q: Which Percent Effect is listed for CC(C)c1cc(NC(=O)c2ccc(NC3CC3)nc2)[nH]n1 ?
A: -6.556

====

Measured Percent Effect accompanies every entry in the list below.
test system: Mycobacterium tuberculosis; assay: Cornell - Phenotypic assay to identify agents that inhibit growth of Mycobacterium tuberculosis; format: functional; design: scale not given: direction of the effect not stated beside the values; conditions: 10 mM as filed; unlikely as a test dose
Hit rate of the full screen: of about 53,000 compounds, about 900 (1.7%) showed an effect of 50% or more. This is one part of a sample in which strong results are shown more often than they occur.
The response must be a number in % with no trailing unit.

These solved cases illustrate the format of a correct answer.
Q: Which Percent Effect is listed for CCC(C)(C)n1nnnc1C(c1cccs1)N1CCc2ccccc2C1 (stereo unspecified) ?
A: 77.94

Q: Which Percent Effect is listed for Fc1ccc([C@@H]2COC[C@H]2NCc2cccc(F)c2)cc1.O=C(O)CC(O)(CC(=O)O)C(=O)O ?
A: 12.54

Q: Which Percent Effect is listed for Cn1ccc(NC(=O)Cc2ccccc2F)n1 ?
A: -2.791

Q: Which Percent Effect is listed for CCOC(C)c1nc(Cn2cc(C)cn2)cs1 (stereo unspecified) ?
A: 25.14

Others:
Q: Which Percent Effect is listed for CCC(C)(C)n1nnnc1C(c1cccs1)N1CCc2ccccc21 (stereo unspecified) ?
A: 26.96

Q: Which Percent Effect is listed for CCCS(=O)(=O)N1CCN(Cc2ccco2)CC1.O=C(O)C(=O)O ?
A: -8.655

Q: Which Percent Effect is listed for CN(C)c1cc(C2CCCN(C(=O)c3noc4c3CCCC4)C2)ccn1 (stereo unspecified) ?
A: 38.49

Q: Which Percent Effect is listed for CN(C1CCCCC1)S(=O)(=O)N1CCN(Cc2ccon2)CC1 ?
A: 27.01

====

system: Mycobacterium tuberculosis; experiment: Cornell - Phenotypic assay to identify agents that inhibit growth of Mycobacterium tuberculosis; format: functional; design: scale not given: direction of the effect not stated beside the values; details: 10 mM as filed; unlikely as a test dose
The campaign covered roughly 53,000 compounds. About 900 (1.7%) showed an effect of 50% or more. This excerpt belongs to a sample that is enriched for strong results.
// NB: equality with 20% counts as f; only Percent Effect strictly below is t

// below: answered molecules
Q: Given CCN(CC)c1ccc(NS(=O)(=O)c2cccnc2)cn1 , is recorded Percent Effect strictly lower than 20%?
A: f

Q: Given O=C(COc1ccc(-c2ccccc2)nc1)NCC1CC1 , is recorded Percent Effect strictly lower than 20%?
A: t

Q: Given COc1cccc(NC(=O)C(C)Cn2cc(Cl)cn2)c1 (stereo not drawn) , is recorded Percent Effect strictly lower than 20%?
A: f

Others:
Q: Given Cc1noc([C@H]2C[C@H]3OCC[C@H]3N(C3CCC3)C2)n1.O=C(O)C(F)(F)F , is recorded Percent Effect strictly lower than 20%?
A: t

Q: Given Cc1ncc(S(=O)(=O)Nc2ccnn2C(C)C)[nH]1 , is recorded Percent Effect strictly lower than 20%?
A: f

Q: Given Cn1cc(-c2nc(C(=O)N3CCCC3c3cnn(C)c3)cs2)cn1 (stereo not drawn) , is recorded Percent Effect strictly lower than 20%?
A: f

Q: Given COCCN1CCN(Cc2cccc(C(=O)N(C)C)c2)CC1 , is recorded Percent Effect strictly lower than 20%?
A: t
